ASSAY_OVERVIEW: yeast display, Sf9 membrane polyspecificity reagent, FACS + sequencing; frameworks hold sequencing errors
MEASURED_PROPERTY: polyreactivity (PSR sort gate)

QVQLVESGGGLVQAGGSLRLSCAASGSIFRYYAMGWYRQAPGKERELVAAISGDSGRTYYADSVKGRFTISRDNAKNTVYFQMNSLKPEDTAVYYCNARVAYRYRTGYDYWGQGTQVTVSS
high polyreactivity
QVQLVESGGGLVQAGGSLRLSCAASGSIVYYAMGWYRQAPGKERELVAAINTSGGSTYYADSVKGRFTISRDNAKNTVYLQMNSLKPEDTAVYYCAAVYVGYITGFKRGYWGQGTQVTVSS
high polyreactivity
QVQLVESGGGLVQAGGSLRLSCAASGSIFPHNAMGWYRQAPGKERELVAAISVSRGSTYYADSVKGRFTISRDNAKNTVYLQMNSLKPEDTAVYYCAAYAYGGRINGYRTYRYNYWGQGTQVTVSS
high polyreactivity
